Tested on: HL-60
Assay: Antiproliferative activity against human HL60 cells after 48 hrs by MTT assay
Type: functional, cell-based
Conditions: HL-60, 48 h
pIC50: −log10 of the molar value.
quantity.measured: pIC50

{"columns": ["smiles.str", "pIC50"],
 "data": [
  ["CC(=O)[C@H]1CC[C@H]2[C@@H]3CC=C4C[C@@H](OC(=O)NCCNC(=O)/C(C#N)=C/c5cccc([N+](=O)[O-])c5)CC[C@]4(C)[C@H]3CC[C@]12C", 4.95]
]}

[a] CC(=O)[C@H]1CC[C@H]2[C@@H]3CC=C4C[C@@H](OC(=O)NCCNC(=O)/C(C#N)=C/c5cccc(C#N)c5)CC[C@]4(C)[C@H]3CC[C@]12C
[b] CC(=O)[C@H]1CC[C@H]2[C@@H]3CC=C4C[C@@H](OC(=O)NCCNC(=O)/C(C#N)=C/c5cccc(F)c5)CC[C@]4(C)[C@H]3CC[C@]12C
Task item: Please state the entry with greater pIC50 among a and b . Output the label that corresponds to your choice.
Reply: a

###

Tested on: HL-60
Assay: Antiproliferative activity against human HL60 cells after 48 hrs by MTT assay
Type: functional, cell-based
Details: HL-60, 48 h
quantity.measured: IC50 (µM)

[I] COc1cccc2c1C(=O)c1c(O)c3c(c(O)c1C2=O)C[C@@](O)(C(=O)CO)C[C@@H]3O[C@H]1C[C@H](N)[C@H](O)[C@H](C)O1 [DOXORUBICIN]
[II] CC(=O)[C@H]1CC[C@H]2[C@@H]3CC=C4C[C@@H](OC(=O)NCCNC(=O)/C(C#N)=C/c5ccc([N+](=O)[O-])cc5)CC[C@]4(C)[C@H]3CC[C@]12C
Task item: Between I and II , which one has the lower reported IC50 value? Please indicate the selected item by its label.
Reply: I
(I: 0.91 µM, II: 10.1 µM)

###

The reader will find reported viability at 20 ug/ml values listed item by item below.
Test: Cytotoxicity against HEK293 cells assessed as cell viability at 20 ug/ml relative to control
Type: cell-based
Conditions: human, read-out: Activity
Write the value in % as a bare number.

{"columns": ["smiles.str", "quantity.measured", "obs.value"],
 "data": [
  ["CC(=O)[C@H]1CC[C@H]2[C@@H]3CC=C4C[C@@H](OC(=O)NCCNC(=O)CC#N)CC[C@]4(C)[C@H]3CC[C@]12C", "viability at 20 ug/ml", 87.9],
  ["CC(=O)[C@H]1CC[C@H]2[C@@H]3CC=C4C[C@@H](OC(=O)NCCNC(=O)/C(C#N)=C/c5cccc(F)c5)CC[C@]4(C)[C@H]3CC[C@]12C", "viability at 20 ug/ml", 60.8],
  ["CC(=O)[C@H]1CC[C@H]2[C@@H]3CC=C4C[C@@H](OC(=O)NCCNC(=O)/C(C#N)=C/c5cccc([N+](=O)[O-])c5)CC[C@]4(C)[C@H]3CC[C@]12C", "viability at 20 ug/ml", 54.7],
  ["CC(=O)[C@H]1CC[C@H]2[C@@H]3CC=C4C[C@@H](OC(=O)NCCNC(=O)/C(C#N)=C/c5ccc(C#N)cc5)CC[C@]4(C)[C@H]3CC[C@]12C", "viability at 20 ug/ml", 64.4]
]}

Task item: Item under review: `CC(=O)[C@H]1CC[C@H]2[C@@H]3CC=C4C[C@@H](OC(=O)NCCNC(=O)/C(C#N)=C/c5ccc([N+](=O)[O-])cc5)CC[C@]4(C)[C@H]3CC[C@]12C` . Reported viability at 20 ug/ml?
Reply: 74.5

Task item: Returns the measured viability at 20 ug/ml for the input compound. Input: `CC(=O)[C@H]1CC[C@H]2[C@@H]3CC=C4C[C@@H](OC(=O)NCCNC(=O)/C(C#N)=C/c5cccc(C#N)c5)CC[C@]4(C)[C@H]3CC[C@]12C`
Reply: 59.6

Task item: Suppose we examine the compound `CC(=O)[C@H]1CC[C@H]2[C@@H]3CC=C4C[C@@H](OC(=O)NCCNC(=O)OC(C)(C)C)CC[C@]4(C)[C@H]3CC[C@]12C` ; what viability at 20 ug/ml value has been reported?
Reply: 85.5
